- Test system: IGROV1 ovarian
- Measurement Description: NCI tumour cell line growth inhibition, 48 h
Answer each item with its documented TGI.
Just the number please, in µM, no unit attached.

query: Tell me reported TGI for Clc1ccc(-c2cc(-c3ccccc3)nc(NCCNc3ccnc4cc(Cl)ccc34)n2)cc1 , tested with IGROV1 ovarian.
result: 3.27

query: # get_value(readout= TGI, system= IGROV1 ovarian) for O=C1OCC2=C1C(c1ccc(Cl)c(Cl)c1)c1cc3c(cc1N2CCO)CCC3 (centres undefined)
result: 17.8

query: Which measured TGI belongs to CN1C/C=C/CCOc2cccc(c2)-c2ccnc(n2)Nc2cccc(c2)C1 , tested on IGROV1 ovarian?
result: 0.338

---

- Test system: ACHN renal
- Measurement Description: NCI tumour cell line growth inhibition, 48 h
Readout Type: TGI (µM)
Report only the number, with the unit µM understood.

query: Quick one: TGI for O=C(Nc1ccccc1)c1cc(S(=O)(=O)Nc2nc3ccccc3o2)c(SCc2ccccc2)cc1Cl ?
result: 37

query: Given COc1cc2c(cc1OCCCCOc1cc3c(cc1OC)C(=O)N1CCC[C@H]1C(=O)N3)N=C[C@@H]1CCCN1C2=O , state its recorded TGI.
result: 27.9

---

- Tested on: DU-145 prostate
- Measurement Description: NCI tumour cell line growth inhibition, 48 h
Give TGI for every item shown.
Form entry: value (µM) — number only.

query: Looking for the measured TGI of O=C(CSc1nc2ccc(I)cc2c(=O)n1Cc1ccccc1)NNC(=O)c1ccccc1 , can you help?
result: 45.9

query: Name the reported TGI value associated with the molecule CC1(C)[C@@H](OC(=O)CCC(=O)O)CC[C@]2(C)[C@H]3C(=O)C=C4[C@@H]5C[C@@](C)(C(=O)O)CC[C@]5(C)CC[C@@]4(C)[C@]3(C)CC[C@@H]12
result: 142

query: Query (molecule): CCN(CC)CCNc1ccc2nnn3c4ccc(O)cc4c(=O)c1c23 ; field requested: TGI
result: 27.6

query: Return reported TGI; argument: c1ccc2cc(C[n+]3ccn(CCCCCCCCCCn4cc[n+](Cc5ccc6ccccc6c5)c4)c3)ccc2c1
result: 14.1

---

- Test system: MALME-3M melanoma
- Measurement Description: NCI tumour cell line growth inhibition, 48 h
Readout Type: TGI

query: Recorded TGI for COC1(O)c2cccc(Cl)c2C(=O)N1C1(C(N)=O)CCCCC1 (stereo not given) with MALME-3M melanoma, please?
result: > 100 µM

query: Give the reported TGI for COC(=O)[C@H](Cc1ccc(OC(C)(C)C)cc1)N[C@H](C)C(=O)N[C@@H](Cc1ccccc1)C(=O)OCc1ccccc1 (system: MALME-3M melanoma).
result: > 100 µM

query: Hello, I am looking for reported TGI with MALME-3M melanoma for CC(=O)[CH-]C(=O)c1ccccc1.CC(=O)[CH-]C(=O)c1ccccc1.C[C@]12CCC(=O)C=C1CC[C@@H]1C2CC[C@@]2(C)C1CC[C@@H]2[O-].C[C@]12CCC(=O)C=C1CC[C@@H]1C2CC[C@@]2(C)C1CC[C@@H]2[O-].Cl.[Ti+4] (stereo not given in full) . Could you help?
result: 46.8 µM

query: Form field: TGI recorded for O=C(c1ccc(Cl)cc1)N(C(=S)OCc1ccccn1)c1ccccc1 with MALME-3M melanoma (enter value)
result: > 100 µM

query: // map COc1cc(C(=O)N/N=C/c2ccc(N(C)C)cc2)cc(OC)c1OC to recorded TGI (system: MALME-3M melanoma)
result: > 100 µM

query: # get_value(readout= TGI, system= MALME-3M melanoma) for N#C[Se]CCCNS(=O)(=O)C1CC2C=CC1C2 (stereo not given)
result: 1.87 µM

query: For MALME-3M melanoma, provide TGI of CC(=O)OC12c3ccccc3-c3ccccc3C1C1C(=O)OC(=O)C12 (stereo not given) please.
result: > 10 µM

query: API: value(readout=TGI, system=MALME-3M melanoma) for record Cn1c(/C=C/[N+](=O)[O-])cc2ccccc21
result: 25.9 µM

query: Could you share what TGI was measured for OCCN1CCN2C=C(C3CCCC4N(CCO)CCN34)CCC21 (stereo not given) , tested on MALME-3M melanoma?
result: > 100 µM

query: Recorded TGI for COc1cccc(N(CN2C(=O)CCC2C(=O)O)C(C)=O)c1 (stereo not given) with MALME-3M melanoma, please?
result: > 100 µM

query: Hello, I am looking for reported TGI with MALME-3M melanoma for COC(=O)/C=C/C1(O)C=CC(=O)C=C1 . Could you help?
result: 8.26 µM

query: For the record O=C(/C(=C\c1ccc(Cl)cc1)c1ccccc1)c1ccccc1 , what value of TGI is listed for MALME-3M melanoma?
result: > 100 µM

query: Request body: readout TGI, system MALME-3M melanoma, query CC(=O)C1=C(C)N(c2ccc(C)cc2)C2(O)C3=C(C(=O)c4ccccc4C3=O)C(O)=CC12Cl (stereo not given) . Return the value.
result: 36.5 µM

query: Query for MALME-3M melanoma: what TGI does the record show for CCN(CC)C1CCC(Nc2c(C(C)=O)cnc3ccc(-c4ccc(O)c(Cl)c4)cc23)CC1 (stereo not given) ?
result: 16.9 µM

query: Fill in the recorded TGI for this compound, with MALME-3M melanoma as test system: COc1ccc2nc3ccc(OC)cc3c(SCc3ccccc3)c2c1
result: > 100 µM

query: Recall the recorded TGI for O=C(Nc1ccc(/C=C/c2ccc(NC(=O)c3cc(S(=O)(=O)O)c4cccnc4c3O)cc2S(=O)(=O)O)c(S(=O)(=O)O)c1)c1cc(S(=O)(=O)O)c2cccnc2c1O with MALME-3M melanoma and state it.
result: > 62.6 µM

query: I'm curious: which TGI was measured for NCCNCc1c2ccccc2c(CNCCN)c2ccccc12 tested on MALME-3M melanoma?
result: 29.8 µM

query: Query for MALME-3M melanoma: what TGI does the record show for O=C(O)c1ccc(C(=O)O)c(C(=O)Nc2ccc3c(c2)C(=O)c2ccccc2-3)c1 ?
result: > 100 µM

query: Any idea what TGI came out for O=C(O)CC(Sc1ccccc1)c1ccccc1 (stereo not given) on MALME-3M melanoma?
result: > 100 µM

query: // fetch MALME-3M melanoma TGI for CN1CCN(Cc2ccc(NC(=O)c3cccc(C#Cc4cnc(N)c5ncccc45)c3F)cc2C(F)(F)F)CC1
result: 1.4 µM

query: Please state recorded TGI (tested on MALME-3M melanoma) of CC(=O)Oc1ccc(/C(=C(\C)c2ccc(Cl)cc2)c2ccc(OCCN3CCCCC3)cc2)cc1
result: 3.91 µM

query: Lab note: need TGI for Clc1ccc(-c2c(C3=NCCCN3)nnn2-c2ccccc2)cc1 on MALME-3M melanoma, anyone have it?
result: > 100 µM

query: TGI of O=C1CCSC2=C1SCc1sccc12 on MALME-3M melanoma?
result: > 100 µM

query: # value lookup — system MALME-3M melanoma, readout TGI, item Cc1ccc(S(=O)OCC23CC4CC(CC(C4)C2)C3)cc1 (stereo not given)
result: > 100 µM

query: GET /values?readout=TGI&system=MALME-3M melanoma&item= COc1cc(C(=O)Nc2cc(OC)c3ccn(C)c3c2)cc2c1C[C@]1(C)CC[C@@H](O)C(C)(C)[C@H]1O2
result: > 100 µM

query: What measured TGI is associated with COc1ccc2[nH]c3c(C)c4ccnc(NCCCN(C)CCCNc5ccc6ncn7c8ccccc8c(=O)c5c67)c4c(C)c3c2c1 on MALME-3M melanoma?
result: 5.92 µM

query: So what TGI did COc1cc2c(cc1OCCCCOc1cc3c(cc1OC)C(=O)N1CCC[C@H]1C(=O)N3)N=C[C@@H]1CCCN1C2=O get with MALME-3M melanoma?
result: 22.5 µM

query: Form field - read-out: TGI; system: MALME-3M melanoma; submitted item: Fc1ccc(-c2sc(-c3cccs3)cc2Cc2cccs2)cc1
result: > 100 µM

query: What is its TGI for MALME-3M melanoma? Entry: O=C(CCCl)NNC1=NCCCN1
result: > 100 µM

query: Please provide the recorded TGI for C=C(C(=C)P(=S)(c1ccccc1)c1ccccc1)P(=S)(c1ccccc1)c1ccccc1 , tested on MALME-3M melanoma.
result: > 100 µM

---

- Test system: DU-145 prostate
- Measurement Description: NCI tumour cell line growth inhibition, 48 h
I'd be grateful if you could share measured TGI for these entries.
Give your result in µM as a bare value.

query: Sample OCc1ccc(N2CCc3ccccc3C2)cc1Cl — what was its TGI?
result: 22.3

query: // lookup TGI for CC1OC(OC2C(OC3CCC4(C)C(CCC5(C)C4CC=C4C6CC(C)(C)CCC6(C(=O)O)CCC45C)C3(C)CO)OCC(O)C2O)C(O)C(O)C1O (stereo not given)
result: 42.3

query: Given CCOC(=O)C(C(=S)SC)c1nn2c(=O)cc(C)nc2s1 (stereo not given) , state its recorded TGI.
result: 32.8
